# assay.system: Phosphatidylinositol 4,5-bisphosphate 3-kinase catalytic subunit alpha isoform (Homo sapiens)
# Sequence (P42336 whole entry, canonical isoform): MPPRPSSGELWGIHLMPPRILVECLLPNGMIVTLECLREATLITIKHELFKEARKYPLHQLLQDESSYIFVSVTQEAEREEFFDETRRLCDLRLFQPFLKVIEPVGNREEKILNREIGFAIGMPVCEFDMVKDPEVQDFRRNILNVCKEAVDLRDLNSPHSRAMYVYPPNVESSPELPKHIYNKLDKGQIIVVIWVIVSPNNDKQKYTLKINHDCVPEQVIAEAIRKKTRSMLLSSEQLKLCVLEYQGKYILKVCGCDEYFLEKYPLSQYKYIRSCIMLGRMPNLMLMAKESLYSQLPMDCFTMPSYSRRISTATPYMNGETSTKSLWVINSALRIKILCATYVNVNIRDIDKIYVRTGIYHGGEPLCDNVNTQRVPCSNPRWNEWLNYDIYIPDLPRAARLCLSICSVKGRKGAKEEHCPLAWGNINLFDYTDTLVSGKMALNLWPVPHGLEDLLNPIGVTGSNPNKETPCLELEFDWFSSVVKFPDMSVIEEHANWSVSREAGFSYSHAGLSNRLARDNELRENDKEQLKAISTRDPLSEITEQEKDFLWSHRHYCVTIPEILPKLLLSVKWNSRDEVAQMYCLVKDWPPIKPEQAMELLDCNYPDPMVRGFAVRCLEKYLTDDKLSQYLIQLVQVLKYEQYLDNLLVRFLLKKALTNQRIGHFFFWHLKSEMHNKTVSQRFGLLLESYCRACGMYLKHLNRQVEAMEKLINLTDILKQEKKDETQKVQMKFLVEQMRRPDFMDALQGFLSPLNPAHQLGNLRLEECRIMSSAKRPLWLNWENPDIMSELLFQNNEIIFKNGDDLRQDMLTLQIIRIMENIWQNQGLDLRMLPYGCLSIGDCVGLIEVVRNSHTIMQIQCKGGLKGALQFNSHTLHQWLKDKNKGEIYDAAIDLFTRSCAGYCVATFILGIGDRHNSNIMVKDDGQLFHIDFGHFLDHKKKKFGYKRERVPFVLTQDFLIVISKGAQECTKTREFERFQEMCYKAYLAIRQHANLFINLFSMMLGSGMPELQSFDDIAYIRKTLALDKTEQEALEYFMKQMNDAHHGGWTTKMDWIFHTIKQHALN
# test.description: Inhibition of PI3Kalpha (unknown origin) using PIP2 as substrate in presence of ATP measured after 1 hr by ADP-Glo assay
Labelling field: enter YES if recorded IC50 is less than 700 nM. Enter NO if it equals or exceeds that cut-off.

{"columns": ["structure.as.smiles", "answer.label"],
 "data": [
  ["Nc1nc2cc(-c3nc(N4CCOCC4)nc(N4CCOCC4)n3)ccc2o1", "YES"]
]}

Query: Is IC50 of Nc1nc2cc(-c3nc(Nc4cccc(C(F)(F)F)c4)nc(N4CCOCC4)n3)ccc2o1 strictly below 700 nM?
Reply: NO

Query: Is IC50 of COc1ccc(CNc2nc3cc(-c4nc(N5CCOCC5)nc(N5CCOCC5)n4)ccc3o2)cc1 strictly below 700 nM?
Reply: YES

Query: Is IC50 of CC(C)Nc1nc2cc(-c3nc(N4CCOCC4)nc(N4CCOCC4)n3)ccc2o1 strictly below 700 nM?
Reply: NO

Reference for the values: ChEMBL document CHEMBL5143740
